Below, each entry is listed alongside its reported solubility (mole fraction).
# PARTICULARS: in methanol, 298.15 K
# output: bare number, no unit

>  <STRUCTURE STRING>
COc1cc(-c2cc(-c3ccc(Cl)cc3)[nH]c(=O)c2C#N)ccc1O

>  <solubility (mole fraction)>
0.000577

$$$$
>  <STRUCTURE STRING>
COc1cc(-c2cc(-c3ccc(Br)cc3)[nH]c(=O)c2C#N)ccc1O

>  <solubility (mole fraction)>
0.000523

$$$$
>  <STRUCTURE STRING>
COc1cc(-c2cc(-c3ccc(F)cc3)[nH]c(=O)c2C#N)ccc1O

>  <solubility (mole fraction)>
0.000618

$$$$
>  <STRUCTURE STRING>
COc1cc(-c2cc(-c3ccc(O)cc3)[nH]c(=O)c2C#N)ccc1O

>  <solubility (mole fraction)>
0.000574

$$$$

Continue with the next compound.
Bench note: what solubility (mole fraction) did COc1ccc(-c2cc(-c3ccc(O)c(OC)c3)c(C#N)c(=O)[nH]2)cc1 show?
0.000472
